Ref: patent US20260209180A1

molecular target: SARS2 coronavirus 3CL protease (Severe acute respiratory syndrome coronavirus 2, UniProt P0DTD1); assay: SARS2 Coronavirus 3CL Protease Assay (FRET); type: biochemical; settings: 5 nM protease pre-incubated with compound 30 minutes; 15 uM peptide substrate; 4 h room temperature; read-out: FRET Potency (nM); IC50 values in the SARS2 3CLPro FRET assay
compounds and their reported IC50
Value expressed in nM; do not type the unit.

The following compounds have reported results that may help.
{"columns": ["compound", "IC50 [nM]"],
 "data": [
  ["CNC(=O)C(=O)[C@H](CCC(C)(F)F)NC(=O)c1cc(Cl)ccc1NC(=O)[C@@H]1CCc2nccc(=O)n21", 14.8],
  ["CNC(=O)C(=O)[C@H](CCC(C)(F)F)NC(=O)c1cc(Cl)ccc1NC(=O)C(C)c1cscn1 (stereo partly shown) [Example 10]", 7],
  ["CNC(=O)C(=O)[C@H](CCC(C)(F)F)NC(=O)c1cc(Cl)ccc1NC(=O)C1CC1C(F)(F)F (stereo partly shown) [Example 47]", 20.5],
  ["CNC(=O)C(=O)[C@H](CCC(C)(F)F)NC(=O)c1cc(Cl)cnc1NC(=O)c1cccc(C(F)(F)F)c1", 11.7],
  ["CNC(=O)C(=O)[C@H](CCC(C)(F)F)NC(=O)c1cc(Cl)ccc1NC(=O)C(C)c1cscn1 (stereo partly shown) [Example 8]", 6.6],
  ["CNC(=O)C(=O)[C@H](CCC(C)(F)F)NC(=O)c1cc(Cl)ccc1NC(=O)OC1CC1", 13.1],
  ["CNC(=O)C(=O)[C@H](CCC(C)(F)F)NC(=O)c1cc(F)cnc1NC(=O)C(C)(C)C", 49.6],
  ["CNC(=O)C(=O)[C@H](CCC(C)(F)F)NC(=O)c1cc(Cl)ccc1NC(=O)C12CC(C(F)(F)F)(C1)C2", 13]
]}

Record request: IC50 value, item CC(F)(F)CC[C@H](NC(=O)c1cc(Cl)cnc1NC(=O)c1cccc(C(F)(F)F)c1)C(=O)C(=O)NC1CC1
9.2

Record request: IC50 value, item CNC(=O)C(=O)[C@H](CCC(C)(F)F)NC(=O)c1cc(Cl)ccc1NC(=O)C1CC(F)(F)C1
8

Record request: IC50 value, item CNC(=O)C(=O)[C@H](CCC(C)(F)F)NC(=O)c1cc(Cl)cnc1NC(=O)c1cccc(F)c1
14

Record request: IC50 value, item CNC(=O)C(=O)[C@H](CCC(C)(F)F)NC(=O)c1cc(Cl)ccc1NC(=O)[C@H]1CC1(F)F
13.2

Record request: IC50 value, item CNC(=O)C(=O)[C@H](CCC(C)(F)F)NC(=O)c1cc(Cl)ccc1NC(=O)C1CC12CC2 (single isomer, unassigned) [Example 19]
10.5

---

compounds and their reported IC50
biological target: UniProt P0DTD1; assay: SARS2 Coronavirus 3CL Protease Assay (FRET); assay type: biochemical; conditions: 5 nM protease pre-incubated with compound 30 minutes; 15 uM peptide substrate; 4 h room temperature; read-out: FRET Potency (nM); IC50 values in the SARS2 3CLPro FRET assay
Value expressed in nM; do not type the unit.

Record request: IC50 value, item CNC(=O)C(=O)[C@H](CCC(C)(F)F)NC(=O)c1cc(Cl)ccc1NC(=O)OC [Example 49]
7.1

Record request: IC50 value, item CNC(=O)C(=O)[C@H](CCC(C)(F)F)NC(=O)c1cc(Cl)ccc1NC(=O)CCC(F)(F)F [Example 14]
8.2
